A compilation of published IC50 results with Tyrosine-protein phosphatase non-receptor type 7 (Homo sapiens).
Sequence (P35236 whole entry): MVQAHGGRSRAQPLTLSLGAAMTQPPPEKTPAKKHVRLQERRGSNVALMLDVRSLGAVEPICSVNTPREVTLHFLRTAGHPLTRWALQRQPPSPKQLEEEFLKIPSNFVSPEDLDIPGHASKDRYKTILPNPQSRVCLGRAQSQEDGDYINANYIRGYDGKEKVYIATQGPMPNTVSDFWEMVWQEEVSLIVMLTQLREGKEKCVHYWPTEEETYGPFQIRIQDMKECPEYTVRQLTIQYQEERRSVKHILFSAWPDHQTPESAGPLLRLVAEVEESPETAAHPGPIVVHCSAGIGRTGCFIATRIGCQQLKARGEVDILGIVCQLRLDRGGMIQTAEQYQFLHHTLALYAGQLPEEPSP

CC1(C)Cc2c(O)c(C=O)c3c(c2C1)C(=O)OC(O)C3 (configuration not stated) ... > 100 µM

For Tyrosine-protein phosphatase non-receptor type 7 (Homo sapiens), give IC50 of the listed compound: CCCCC/C=C\C/C=C\CCCCCCC(=O)O > 100 µM

For Tyrosine-protein phosphatase non-receptor type 7 (Homo sapiens), give IC50 of the listed compound: O=C(Nc1ccc(I)cc1)C(=O)Nc1ccc(NC(=O)C(c2ccccc2)S(=O)(=O)O)cc1 (configuration not stated) > 50 µM

###

A compilation of published IC50 results with Tyrosine-protein phosphatase non-receptor type 7 (Homo sapiens).

Worked examples follow.
O=C(CCCn1cc(-c2c(-c3ccccc3)oc3cc(O)c(C(=O)O)cc23)nn1)Nc1cccc2ccccc12 ... 32.1 µM
OCc1ccc(O)cn1 ... > 100 µM
COc1c(C=O)c2c(c3c1CC(C)(C)C3)C(=O)OC(O)C2 (centres undefined) ... > 100 µM

For Tyrosine-protein phosphatase non-receptor type 7 (Homo sapiens), give IC50 of the listed compound: CCCCC/C=C\C/C=C\CCCCCCCCCCCCCCCCC(=O)O > 100 µM
